# test: Ibrutinib and SMT-conjugate pharmacokinetics in human subjects (plasma of patients A and B)
# measurement.conditions: human, in vivo, 560 mg, Concentration, patient B, sample ID 12, T 2.4 h, 1xdd 560mg, group max
endpoint.label: concentration at 2.4 h (nM)

| molecule | endpoint.label | unit.text | recorded.result |
| --- | --- | --- | --- |
| C=CC(=O)N1CCC[C@@H](n2nc(-c3ccc(Oc4ccccc4)cc3)c3c(N)ncnc32)C1 [Ibrutinib, reference compound] | concentration at 2.4 h | nM | 551 |

* * *

# test: Ibrutinib and SMT-conjugate pharmacokinetics in human subjects (plasma of patients A and B)
# measurement.conditions: human, in vivo, 560 mg, Concentration, patient B, sample ID 4, T 2.8 h, 1xdd 560mg, group max

| compound | concentration at 2.8 h, nM |
| --- | --- |
| C=CC(=O)N1CCC[C@@H](n2nc(-c3ccc(Oc4ccccc4)cc3)c3c(N)ncnc32)C1 [Ibrutinib, reference compound] | 234 |
